Tested on: Klebsiella pneumoniae
assay_details: Antibacterial activity against KPC-2 producing multidrug-resistant Klebsiella pneumoniae clinical isolate 15-5 assessed as inhibition of bacterial growth incubated for 18 to 20 hrs by two fold serial dilution assay
Format: functional
cond: time 18-20 hrs
value_type: MIC (µg/mL)
Please give a number only; it is taken to be in µg/mL.

Recorded results for 2 compounds are shown here.
>  <compound>
Nc1nc(/C(=N/OC(C(=O)O)C2CCC(F)(F)CC2)C(=O)N[C@@H]2C(=O)N3C(C(=O)O)=C(CSCCNC(=O)c4ccc(O)c(O)c4Cl)CS[C@H]23)c(Br)s1.O=C(O)C(F)(F)F (stereo partly drawn)

>  <units_text>
µg/mL

>  <MIC>
0.25

$$$$
>  <compound>
Nc1nc(/C(=N/OC2(C(=O)O)CC2)C(=O)N[C@@H]2C(=O)N3C(C(=O)O)=C(CSCCNC(=O)c4ccc(O)c(O)c4Cl)CS[C@H]23)cs1.O=C(O)C(F)(F)F

>  <units_text>
µg/mL

>  <MIC>
32

$$$$

Next:
# lookup: MIC of Nc1nc(/C(=N/OC(C(=O)O)C2CCC(F)(F)CC2)C(=O)N[C@@H]2C(=O)N3C(C(=O)O)=C(CSCCNC(=O)c4ccc(O)c(O)c4Cl)CS[C@H]23)ns1.O=C(O)C(F)(F)F (stereo partly drawn) 16

---

This section presents compounds with their documented AUC(0-inf) values.
assay_details: AUC (0 to infinity) in ICR mouse at 20 mg/kg,iv administration measured upto 6 hrs by LC-MS/MS analysis
Format: ADME, organism-based
cond: in vivo
Please give a number only; it is taken to be in ng·h/mL.

# lookup: AUC(0-inf) of "C[C@@](O/N=C(\C(=O)N[C@@H]1C(=O)N2C(C(=O)O)=C(CSCCNC(=O)c3ccc(O)c(O)c3Cl)CS[C@H]12)c1nc(N)sc1Cl)(C(=O)O)C(F)(F)F.O=C(O)C(F)(F)F" 968

Okay, and Nc1nc(/C(=N/OC(C(=O)O)C2CCC(F)(F)CC2)C(=O)N[C@@H]2C(=O)N3C(C(=O)O)=C(CSCCNC(=O)c4ccc(O)c(O)c4Cl)CS[C@H]23)cs1.O=C(O)C(F)(F)F (stereo partly drawn) ? 10400

Okay, and "CC(C)(O/N=C(\C(=O)N[C@@H]1C(=O)N2C(C(=O)[O-])=C(C[N+]3(CCNC(=O)c4ccc(O)c(O)c4Cl)CCCC3)CS[C@H]12)c1csc(N)n1)C(=O)O.O=C(O)C(F)(F)F" ? 11600

---

Tested on: Pseudomonas aeruginosa
assay_details: Antibacterial activity against IMP-4 producing multidrug-resistant Pseudomonas aeruginosa clinical isolate 19-1 assessed as inhibition of bacterial growth incubated for 18 to 20 hrs by two fold serial dilution assay
Type: functional
cond: time 18-20 hrs
value_type: MIC (µg/mL)
Please give a number only; it is taken to be in µg/mL.

Recorded results for 5 compounds are shown here.
>  <compound>
Nc1nc(/C(=N/O[C@@H](C(=O)O)C2CCC(F)(F)CC2)C(=O)N[C@@H]2C(=O)N3C(C(=O)O)=C(CSCCNC(=O)c4ccc(O)c(O)c4Cl)CS[C@H]23)cs1.O=C(O)C(F)(F)F

>  <units_text>
µg/mL

>  <measured_value>
2

$$$$
>  <compound>
Nc1nc(/C(=N/OC(C(=O)O)C2CCC(F)(F)CC2)C(=O)N[C@@H]2C(=O)N3C(C(=O)O)=C(CSCCNC(=O)c4ccc(O)c(O)c4Cl)CS[C@H]23)c(Br)s1.O=C(O)C(F)(F)F (stereo partly drawn)

>  <units_text>
µg/mL

>  <measured_value>
8

$$$$
>  <compound>
Cc1sc(N)nc1/C(=N/OC(C(=O)O)C1CCC(F)(F)CC1)C(=O)N[C@@H]1C(=O)N2C(C(=O)O)=C(CSCCNC(=O)c3ccc(O)c(O)c3Cl)CS[C@H]12.O=C(O)C(F)(F)F (stereo partly drawn)

>  <units_text>
µg/mL

>  <measured_value>
8

$$$$
>  <compound>
C[C@@](O/N=C(\C(=O)N[C@@H]1C(=O)N2C(C(=O)O)=C(CSCCNC(=O)c3ccc(O)c(O)c3Cl)CS[C@H]12)c1nc(N)sc1Cl)(C(=O)O)C(F)(F)F.O=C(O)C(F)(F)F

>  <units_text>
µg/mL

>  <measured_value>
1

$$$$
>  <compound>
C[C@](O/N=C(\C(=O)N[C@@H]1C(=O)N2C(C(=O)O)=C(CSCCNC(=O)c3ccc(O)c(O)c3Cl)CS[C@H]12)c1nc(N)sc1Cl)(C(=O)O)C(F)(F)F.O=C(O)C(F)(F)F

>  <units_text>
µg/mL

>  <measured_value>
1

$$$$

# lookup: MIC of C[C@@H](O)[C@H]1C(=O)N2C(C(=O)O)=C(S[C@@H]3CN[C@H](C(=O)N(C)C)C3)[C@H](C)[C@H]12 [MEROPENEM] 0.5

Okay, and Nc1nc(/C(=N/OC(C(=O)O)C2CCC(F)(F)CC2)C(=O)N[C@@H]2C(=O)N3C(C(=O)O)=C(CSCCNC(=O)c4ccc(O)c(O)c4Cl)CS[C@H]23)ns1.O=C(O)C(F)(F)F (stereo partly drawn) ? 8

---

assay_details: AUC (0 to infinity) in ICR mouse at 20 mg/kg,iv administration measured upto 6 hrs by LC-MS/MS analysis
Type: ADME, organism-based
cond: in vivo
Entry flag: yes if AUC(0-inf) reaches 4000 ng·h/mL; no if it does not.

>  <molecule>
Nc1nc(/C(=N/OC(C(=O)O)C2CCC(F)(F)CC2)C(=O)N[C@@H]2C(=O)N3C(C(=O)O)=C(CSCCNC(=O)c4ccc(O)c(O)c4Cl)CS[C@H]23)c(Cl)s1.O=C(O)C(F)(F)F (stereo not given in full)

>  <discrete_label>
yes

$$$$
>  <molecule>
Cl.Nc1nc(/C(=N/OC(C(=O)O)C2CCC(F)(F)CC2)C(=O)N[C@@H]2C(=O)N3C(C(=O)O)=C(CSCCNC(=O)c4ccc(O)c(O)c4Cl)CS[C@H]23)cs1 (stereo not given in full)

>  <discrete_label>
yes

$$$$
>  <molecule>
Nc1nc(/C(=N/OC(C(=O)O)C2CCCCC2)C(=O)N[C@@H]2C(=O)N3C(C(=O)O)=C(CSCCNC(=O)c4ccc(O)c(O)c4Cl)CS[C@H]23)cs1.O=C(O)C(F)(F)F (stereo not given in full)

>  <discrete_label>
no

$$$$

Consider the record given below.
Is it the case that CC1CCC(C(O/N=C(\C(=O)N[C@@H]2C(=O)N3C(C(=O)O)=C(CSCCNC(=O)c4ccc(O)c(O)c4Cl)CS[C@H]23)c2csc(N)n2)C(=O)O)CC1.O=C(O)C(F)(F)F (stereo not given in full) has AUC(0-inf) reaching or exceeding 4000 ng·h/mL? yes

---

System: Klebsiella pneumoniae
assay_details: Antibacterial activity against KPC-2 producing multidrug-resistant Klebsiella pneumoniae clinical isolate 15-5 assessed as inhibition of bacterial growth incubated for 18 to 20 hrs by two fold serial dilution assay
Assay type: functional
cond: time 18-20 hrs
value_type: MIC (µg/mL)
Please give a number only; it is taken to be in µg/mL.

Recorded results for 4 compounds are shown here.
>  <compound>
CC(C)[C@@H](O/N=C(\C(=O)N[C@@H]1C(=O)N2C(C(=O)O)=C(CSCCNC(=O)c3ccc(O)c(O)c3Cl)CS[C@H]12)c1csc(N)n1)C(=O)O.O=C(O)C(F)(F)F

>  <MIC (µg/mL)>
0.25

$$$$
>  <compound>
Cc1sc(N)nc1/C(=N/OC(C(=O)O)C1CCC(F)(F)CC1)C(=O)N[C@@H]1C(=O)N2C(C(=O)O)=C(CSCCNC(=O)c3ccc(O)c(O)c3Cl)CS[C@H]12.O=C(O)C(F)(F)F (stereo not given in full)

>  <MIC (µg/mL)>
2

$$$$
>  <compound>
Nc1nc(/C(=N/OC2(C(=O)O)CCC2)C(=O)N[C@@H]2C(=O)N3C(C(=O)O)=C(CSCCNC(=O)c4ccc(O)c(O)c4Cl)CS[C@H]23)cs1.O=C(O)C(F)(F)F

>  <MIC (µg/mL)>
4

$$$$
>  <compound>
Nc1nc(/C(=N/OC(C(=O)O)C2CCC(F)(F)CC2)C(=O)N[C@@H]2C(=O)N3C(C(=O)O)=C(CSCCNC(=O)c4ccc(O)c(O)c4Cl)CS[C@H]23)cs1.O=C(O)C(F)(F)F (stereo not given in full)

>  <MIC (µg/mL)>
0.25

$$$$

Next:
# lookup: MIC of CC(C)(C)C1CCC(C(O/N=C(\C(=O)N[C@@H]2C(=O)N3C(C(=O)O)=C(CSCCNC(=O)c4ccc(O)c(O)c4Cl)CS[C@H]23)c2csc(N)n2)C(=O)O)CC1.O=C(O)C(F)(F)F (stereo not given in full) 1

---

This section presents compounds with their documented MIC values.
Tested on: Klebsiella pneumoniae
assay_details: Antibacterial activity against KPC-2 producing multidrug-resistant Klebsiella pneumoniae clinical isolate 15-5 assessed as inhibition of bacterial growth incubated for 18 to 20 hrs by two fold serial dilution assay
Type: functional
cond: time 18-20 hrs
Please give a number only; it is taken to be in µg/mL.

Recorded results for 3 compounds are shown here.
>  <compound>
CC(C)(O/N=C(\C(=O)N[C@@H]1C(=O)N2C(C(=O)O)=C(CSCCOCCNC(=O)c3ccc(O)c(O)c3Cl)CS[C@H]12)c1csc(N)n1)C(=O)O.O=C(O)C(F)(F)F

>  <assay_target>
Klebsiella pneumoniae

>  <MIC / µg/mL>
4

$$$$
>  <compound>
CC(C)[C@H](O/N=C(\C(=O)N[C@@H]1C(=O)N2C(C(=O)O)=C(CSCCNC(=O)c3ccc(O)c(O)c3Cl)CS[C@H]12)c1csc(N)n1)C(=O)O.O=C(O)C(F)(F)F

>  <assay_target>
Klebsiella pneumoniae

>  <MIC / µg/mL>
4

$$$$
>  <compound>
CC(C)C(O/N=C(\C(=O)N[C@@H]1C(=O)N2C(C(=O)O)=C(CSCCNC(=O)c3ccc(O)c(O)c3Cl)CS[C@H]12)c1csc(N)n1)C(=O)O.O=C(O)C(F)(F)F (stereo not given in full)

>  <assay_target>
Klebsiella pneumoniae

>  <MIC / µg/mL>
0.25

$$$$

# lookup: MIC of CC(C)C(O/N=C(\C(=O)N[C@@H]1C(=O)N2C(C(=O)O)=C(CS[C@H]3CC[C@@H](NC(=O)c4ccc(O)c(O)c4Cl)CC3)CS[C@H]12)c1csc(N)n1)C(=O)O.O=C(O)C(F)(F)F (stereo not given in full) 2

Okay, and "CC(C)(O/N=C(\C(=O)N[C@@H]1C(=O)N2C(C(=O)O)=C(CS[C@H]3CC[C@@H](NC(=O)c4ccc(O)c(O)c4Cl)CC3)CS[C@H]12)c1csc(N)n1)C(=O)O.O=C(O)C(F)(F)F" ? 8
